- methodNotes: compounds altering in vitro BBB leakiness – cell-based, FITC-avidin fluorescence, HTS, primary screen (AID 1963498); further: test concentration not given here
- assayConditions: brain endothelial barrier, actives lie on both sides
readoutName: fold change permeability
Keep the answer to the number alone.

Example cases with answers are listed next.
>>> df
                                   molecule  observed
0  Cc1cccc(-c2[nH]c(Cc3cccc(C(N)=O)c3)nc2-c2ccc3nccnc3c2)n1       0.9
1  C=C[C@@]1(C)CC(=O)[C@]2(O)[C@@]3(C)[C@@H](O)CCC(C)(C)[C@@H]3[C@H](O)[C@H](OC(C)=O)[C@@]2(C)O1       0.8
2    CN(C)CCCN1c2ccccc2Sc2ccc(C(F)(F)F)cc21       1.2
3  CC(=O)O[C@H]1CC[C@@]2(C)C(=CC[C@@H]3[C@@H]2CC[C@]2(C)C(c4cccnc4)=CC[C@@H]32)C1       1.8
4  Nc1nc(Cl)nc2c1ncn2[C@@H]1O[C@H](CO)[C@@H](O)[C@H]1O       0.9
5  COc1ccccc1N1CCN(CCCNc2cc(=O)n(C)c(=O)n2C)CC1       1.4
6  COc1ccc(CC(C)NCC(O)c2ccc(O)c(NC=O)c2)cc1 (centres undefined)       0.9
7  CCN(Cc1cccnc1)C(=O)CN(c1ccc(OC)nc1)S(=O)(=O)c1ccccc1C       1.9

Now for another entry.
### Prompt Returns the measured fold change permeability for the input molecule. Input: O=C(OCCN1CCOCC1)C1(c2ccccc2)CCCCC1
### Response 1

---

- methodNotes: compounds altering in vitro BBB leakiness – cell-based, FITC-avidin fluorescence, HTS, primary screen (AID 1963498); further: test concentration not given here
- assayConditions: brain endothelial barrier, actives lie on both sides
Calls of active or inactive are those of the source. No stated cut-off is given here; in the data, active means fold change permeability below about 0.7 or above about 1.3; inactive means in between.
Mark one answer only. Choices: 1.0 = active, 0.0 = inactive

Sample answers from the record:
                                   compound  qualitativelabel
0       Nc1ccn([C@H]2CC[C@@H](CO)O2)c(=O)n1               0.0
1  CC(C)(CN1C(=O)C(Cl)=C(Cl)C1=O)CN1C(=O)C(Cl)=C(Cl)C1=O               0.0
2  CN(C)c1ccccc1CN1CCCN(Cc2ccccc2N(C)C)C1c1ccncc1               0.0
3    Cc1cccc(C)c1OCC(C)N (stereo not drawn)               0.0
4  CCC(=O)NS(=O)(=O)c1ccc(-c2c(-c3ccccc3)noc2C)cc1               0.0

### Prompt Would you mind telling me which call this test gave O=c1c(-c2ccc(O)cc2)coc2cc(O)cc(O)c12 ?
### Response 0.0

### Prompt Would you mind telling me which call this test gave CCOC(=O)Nc1ccc(NCc2ccc(F)cc2)nc1N ?
### Response 1.0

### Prompt Would you mind telling me which call this test gave COc1ccc(C2(CNC(=O)c3ccc(NC(=O)c4ccco4)cc3)CCOCC2)cc1 ?
### Response 1.0

### Prompt Would you mind telling me which call this test gave Cn1cc(C2=C(c3ccc(Cl)cc3Cl)C(=O)NC2=O)c2ccccc21 ?
### Response 1.0

### Prompt Would you mind telling me which call this test gave O=C(NCCN1CCOCC1)c1ccc(Cl)cc1 ?
### Response 0.0
